Just for reference, patent US11999727B2 is where these values come from.

Documented IC50 across a set of molecules
# Target Or Test System: PRMT5 (Homo sapiens)
# Construct: purchased Viva (custom protein)
# Sequence (O14744 whole entry): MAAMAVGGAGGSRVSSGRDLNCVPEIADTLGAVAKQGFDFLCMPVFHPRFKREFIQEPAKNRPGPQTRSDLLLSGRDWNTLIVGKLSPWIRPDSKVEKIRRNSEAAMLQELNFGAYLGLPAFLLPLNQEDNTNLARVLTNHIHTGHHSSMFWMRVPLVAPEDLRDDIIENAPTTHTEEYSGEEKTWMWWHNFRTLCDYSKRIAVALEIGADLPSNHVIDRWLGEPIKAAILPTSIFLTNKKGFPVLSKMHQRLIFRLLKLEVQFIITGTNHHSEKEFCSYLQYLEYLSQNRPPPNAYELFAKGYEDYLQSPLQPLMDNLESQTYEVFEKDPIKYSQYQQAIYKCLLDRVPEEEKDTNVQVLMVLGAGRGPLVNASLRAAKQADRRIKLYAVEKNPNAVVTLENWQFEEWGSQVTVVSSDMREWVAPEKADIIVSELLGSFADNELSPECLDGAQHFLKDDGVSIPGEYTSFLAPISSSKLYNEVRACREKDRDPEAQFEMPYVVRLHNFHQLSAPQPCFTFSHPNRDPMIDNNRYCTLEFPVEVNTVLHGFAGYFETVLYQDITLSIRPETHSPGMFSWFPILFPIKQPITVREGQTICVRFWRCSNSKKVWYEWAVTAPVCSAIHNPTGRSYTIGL
# Sequence (Q9BQA1 whole entry partner): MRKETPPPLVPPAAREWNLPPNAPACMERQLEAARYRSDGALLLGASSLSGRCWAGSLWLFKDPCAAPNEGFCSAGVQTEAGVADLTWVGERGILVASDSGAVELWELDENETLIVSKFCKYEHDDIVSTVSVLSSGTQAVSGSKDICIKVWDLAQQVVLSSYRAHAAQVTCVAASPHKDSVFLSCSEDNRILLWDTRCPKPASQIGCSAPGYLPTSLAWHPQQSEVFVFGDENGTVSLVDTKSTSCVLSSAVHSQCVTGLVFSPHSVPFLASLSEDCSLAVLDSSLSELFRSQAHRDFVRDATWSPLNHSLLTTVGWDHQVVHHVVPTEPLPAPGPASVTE
# Protocol: PRMT5 biochemical IC50 assay with MTA as cofactor
# Experimental Conditions: PRMT5, MTA as cofactor; read-out: MTA IC50

Molecule	IC50
C[C@@H]1CC[C@@H](c2ccc3sc(C(F)(F)F)nc3c2)N(C(=O)C(=O)Nc2cncc(C(N)=O)c2)C1 (single isomer, unassigned)	> 500 nM
Cc1nc2cc([C@H]3CC[C@H](C)CN3C(=O)C(=O)Nc3cnc(N)c(C)c3)ccc2s1 (single isomer, unassigned)	< 50 nM
CCc1cc(NC(=O)C(=O)N2C[C@@H](C)CC[C@@H]2c2ccc3[nH]cnc3c2)cnc1N (single isomer, unassigned)	< 50 nM
C[C@@]1(F)CC[C@H](c2ccccc2)N(C(=O)C(=O)Nc2cncc(C(N)=O)c2)C1 (single isomer, unassigned)	< 50 nM
CCc1cc(NC(=O)C(=O)N2C[C@H](C)CC[C@H]2c2ccc3sc(NC)nc3c2)cnc1N (single isomer, unassigned)	> 500 nM
Cc1cc(NC(=O)C(=O)N2C[C@H](C)CC[C@H]2c2ccc3c(c2)CCC(=O)N3)cnc1C(F)(F)F (racemic)	50 to 500 nM
